measured_target: BRM (Homo sapiens, UniProt P51531)
Construct: In-Cell Western Screen of BRM Degradation in SW1573 Cells; endogenous in cells; host or cells: SW1573
Sequence (P51531 whole entry): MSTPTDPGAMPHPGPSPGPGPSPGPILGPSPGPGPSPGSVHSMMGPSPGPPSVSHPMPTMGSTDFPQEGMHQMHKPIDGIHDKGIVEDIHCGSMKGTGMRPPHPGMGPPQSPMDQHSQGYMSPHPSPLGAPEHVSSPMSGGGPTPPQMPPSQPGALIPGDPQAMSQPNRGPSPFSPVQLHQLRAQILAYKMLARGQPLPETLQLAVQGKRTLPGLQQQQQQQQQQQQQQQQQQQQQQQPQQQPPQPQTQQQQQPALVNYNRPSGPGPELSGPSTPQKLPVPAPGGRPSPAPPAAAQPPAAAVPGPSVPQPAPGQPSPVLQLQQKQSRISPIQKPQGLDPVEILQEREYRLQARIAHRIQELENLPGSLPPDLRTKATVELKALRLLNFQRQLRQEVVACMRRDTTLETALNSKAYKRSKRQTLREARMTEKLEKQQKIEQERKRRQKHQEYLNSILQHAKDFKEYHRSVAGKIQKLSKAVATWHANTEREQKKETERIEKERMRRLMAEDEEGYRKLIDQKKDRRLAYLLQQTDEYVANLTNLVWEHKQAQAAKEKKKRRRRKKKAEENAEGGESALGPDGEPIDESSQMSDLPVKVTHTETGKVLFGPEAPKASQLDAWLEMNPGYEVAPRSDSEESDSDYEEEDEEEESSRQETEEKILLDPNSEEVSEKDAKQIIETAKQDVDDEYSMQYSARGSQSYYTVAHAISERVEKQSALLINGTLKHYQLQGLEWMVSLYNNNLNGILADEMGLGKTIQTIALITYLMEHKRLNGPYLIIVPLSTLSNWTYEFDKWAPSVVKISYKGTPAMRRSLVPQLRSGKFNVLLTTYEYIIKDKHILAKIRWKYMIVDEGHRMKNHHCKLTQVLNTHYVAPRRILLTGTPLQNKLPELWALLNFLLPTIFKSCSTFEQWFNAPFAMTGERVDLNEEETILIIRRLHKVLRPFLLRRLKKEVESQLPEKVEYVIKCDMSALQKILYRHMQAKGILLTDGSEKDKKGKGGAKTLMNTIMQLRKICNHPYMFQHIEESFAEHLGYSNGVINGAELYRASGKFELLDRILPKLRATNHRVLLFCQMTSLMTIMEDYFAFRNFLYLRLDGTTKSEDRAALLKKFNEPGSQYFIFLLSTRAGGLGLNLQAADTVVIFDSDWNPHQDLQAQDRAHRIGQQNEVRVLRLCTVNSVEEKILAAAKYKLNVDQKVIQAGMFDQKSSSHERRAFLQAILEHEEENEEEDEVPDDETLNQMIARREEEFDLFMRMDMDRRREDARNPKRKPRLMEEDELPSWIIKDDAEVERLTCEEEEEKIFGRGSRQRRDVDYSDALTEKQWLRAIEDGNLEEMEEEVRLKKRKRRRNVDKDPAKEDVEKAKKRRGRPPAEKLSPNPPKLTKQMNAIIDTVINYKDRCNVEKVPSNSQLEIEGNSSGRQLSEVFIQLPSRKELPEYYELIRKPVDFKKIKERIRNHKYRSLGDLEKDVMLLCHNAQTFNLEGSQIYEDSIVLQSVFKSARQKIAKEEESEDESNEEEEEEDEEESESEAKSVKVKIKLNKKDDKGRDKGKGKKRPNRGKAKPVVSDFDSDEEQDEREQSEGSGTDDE
assay_info: In-cell Western screen of BRM degradation in SW1573 cells (Dmax and DC50)
Assay type: cell-based
condition_info: BRM degradation, SW1573 cells; when tested at the top concentration of between 0.3 and 10 μM; read-out: Dmax (%) (% degraded)
Procedure: In-Cell Western Screen of BRM Degradation in SW1573 Cells […] To read each plate TBS-T was removed, and each plate was inverted tapped on a paper towel. The plates were read on the LI-COR Odyssey with default intensity settings of 5.0 for both channels. LI-COR images were analyzed with the in-cell Western feature of Image Studio Lite.
A collection of molecules and their measured Dmax

molecule	Dmax
Cc1ncsc1-c1ccc(CNC(=O)[C@@H]2C[C@@H](O)CN2C(=O)[C@H](c2cc(OCCN3CCN(CCCc4cc(N5C6CCC5CN(c5cc(-c7ccccc7O)nnc5N)C6)ccn4)CC3)no2)C(C)C)cc1 [compound 43]	< 50%
Cc1ncsc1-c1ccc([C@H](C)NC(=O)[C@@H]2C[C@@H](O)CN2C(=O)[C@@H](c2cc(OCCOCCOCCCCN3CCC4(CC3)CCN(c3cc(-c5ccccc5O)nnc3N)CC4)no2)C(C)C)cc1 [compound 68]	> 75%
Cc1ncsc1-c1ccc([C@H](C)NC(=O)[C@@H]2C[C@@H](O)CN2C(=O)[C@@H](c2cc(CCCN3CCN(CCOc4cc(N5C6CCC5CN(c5cc(-c7ccccc7O)nnc5N)C6)ccn4)CC3)no2)C(C)C)cc1 [compound 134]	> 75%
Cc1ncsc1-c1ccc([C@H](C)NC(=O)[C@@H]2C[C@@H](O)CN2C(=O)[C@H](c2cc(OCCN3CCN(CCOc4cc(N5C6CCC5CN(c5cc(-c7ccccc7O)nnc5N)C6)ccn4)CC3)no2)C(C)C)cc1 [compound 46]	50 to 75%
Cc1ncsc1-c1ccc(CNC(=O)[C@@H]2C[C@@H](O)CN2C(=O)[C@H](c2cc(OCCOCCOCCCCN3CCOC4(CCN(c5cc(-c6ccccc6O)nnc5N)CC4)C3)no2)C(C)C)cc1 [compound 36]	50 to 75%
Cc1ncsc1-c1ccc([C@H](C)NC(=O)[C@@H]2C[C@@H](O)CN2C(=O)[C@@H](c2cc(OCCCc3ccc(C(C)n4cc(-c5cc(-c6ccccc6O)nnc5N)cn4)cc3)no2)C(C)C)cc1 (stereo partly drawn) [compound 60]	> 75%
Cc1ncoc1-c1ccc([C@H](C)NC(=O)[C@@H]2C[C@@H](O)CN2C(=O)[C@@H](c2cc(OCCN3CCN(CCOc4cc(N5C6CCC5CN(c5cc(-c7ccccc7O)nnc5N)C6)ccn4)CC3)no2)C(C)C)cn1 [compound 117]	> 75%
Cc1ncsc1-c1ccc([C@H](C)NC(=O)[C@@H]2C[C@@H](O)CN2C(=O)C(C(C)C)n2cc(OCCN3CCN(CCOc4cc(N5C6CCC5CN(c5cc(-c7ccccc7O)nnc5N)C6)ccn4)CC3)cn2)cc1 (stereo in doubt) [compound 38]	> 75%
Cc1ncsc1-c1ccc([C@H](C)NC(=O)[C@@H]2C[C@@H](O)CN2C(=O)[C@@H](NC(=O)COC2CN(CCN3CCN(CCCc4cc(N5C6CCC5CN(c5cc(-c7ccccc7O)nnc5N)C6)ccn4)CC3)C2)C(C)(C)C)cc1 [compound 49]	50 to 75%

====

Listed compounds paired with reported DC50
measured_target: BRM (Homo sapiens, UniProt P51531)
Construct: In-Cell Western Screen of BRM Degradation in SW1573 Cells; endogenous in cells; host or cells: SW1573
assay_info: In-cell Western screen of BRM degradation in SW1573 cells (Dmax and DC50)
Format: cell-based
condition_info: BRM degradation, SW1573 cells; read-out: DC50
assay_metric: DC50

compound	assay_metric	reported_measurement
Cc1ncsc1-c1ccc([C@H](C)NC(=O)[C@@H]2C[C@@H](O)CN2C(=O)[C@@H](c2cc(OCCCN3CCC(O[C@H]4C[C@H](Oc5cc(N6C7CCC6CN(c6cc(-c8ccccc8O)nnc6N)C7)ccn5)C4)CC3)no2)C(C)C)cc1 [compound 218]	DC50	< 2.5 nM
Cc1ncsc1-c1ccc([C@H](C)NC(=O)[C@@H]2C[C@@H](O)CN2C(=O)[C@@H](c2cc(OCCC3CCN(C[C@H]4C[C@H](Oc5cc(N6C7CCC6CN(c6cc(-c8ccccc8O)nnc6N)C7)ccn5)C4)CC3)no2)C(C)C)cn1 [compound 288]	DC50	< 2.5 nM
Cc1ncsc1-c1ccc([C@H](CCCC(=O)O)NC(=O)[C@@H]2C[C@@H](O)CN2C(=O)C(c2cc(OCCN3CCC(O[C@H]4C[C@H](Oc5cc(N6C7CCC6CN(c6cc(-c8ccccc8O)nnc6N)C7)ccn5)C4)CC3)no2)C(C)C)cc1 (stereo partly shown) [compound 687]	DC50	> 30 nM
Cc1ncsc1-c1ccc([C@H](C)NC(=O)[C@@H]2C[C@@H](O)CN2C(=O)[C@@H](c2cc(OCCN3CCN(CC#CCn4cc(-c5cc(-c6ccccc6O)nnc5N)cn4)CC3)no2)C(C)C)cc1 [compound 113]	DC50	< 2.5 nM
Cc1ncsc1-c1ccc([C@H](C)NC(=O)[C@@H]2C[C@@H](O)CN2C(=O)[C@@H](c2cc(OCCN3CCN(CCOc4cc(N5C6CCC5CN(c5cc(-c7ccccc7O)nnc5N)C6)ccn4)C[C@@H]3C)no2)C(C)C)cc1 [compound 141]	DC50	< 2.5 nM
Cc1cnn(C)c1-c1ccc([C@H](C)NC(=O)[C@@H]2C[C@@H](O)CN2C(=O)[C@H](c2cc(OCCN3CCN(CCOc4cc(N5C6CCC5CN(c5cc(-c7ccccc7O)nnc5N)C6)ccn4)CC3)no2)C(C)C)cc1 [compound 193]	DC50	> 30 nM
Cc1ncsc1-c1ccc([C@H](C)NC(=O)[C@@H]2C[C@@H](O)CN2C(=O)[C@@H](c2cc(OCCN3CC[C@H](O[C@H]4C[C@H](Oc5cc(N6C7CCC6CN(c6cc(-c8ccccc8O)nnc6N)C7)ccn5)C4)C[C@@H]3C)no2)C(C)C)cc1 (single isomer, unassigned) [compound 636]	DC50	< 2.5 nM
Cc1ncsc1-c1ccc(CNC(=O)[C@@H]2C[C@@H](O)CN2C(=O)[C@@H](c2cc(OCCN3CCN(CCOc4cc(N5C6CCC5CN(c5cc(-c7ccccc7O)nnc5N)C6)ccn4)CC3)no2)C(C)C)cc1 [compound 42]	DC50	< 2.5 nM
Cc1ncsc1-c1ccc([C@H](C)NC(=O)[C@@H]2C[C@@H](O)CN2C(=O)[C@H](c2cc(OCCOc3ccc(C(C)n4cc(-c5cc(-c6ccccc6O)nnc5N)cn4)cc3)no2)C(C)C)cc1 (stereo partly shown) [compound 156]	DC50	> 30 nM
Cc1ncsc1-c1ccc(CNC(=O)[C@@H]2C[C@@H](O)CN2C(=O)[C@@H](c2cc(OCCOCCOCCOCCOCCn3cc(-c4cc(-c5ccccc5O)nnc4N)cn3)no2)C(C)C)cc1 [compound 19]	DC50	10 to 30 nM
Cc1ncoc1-c1ccc([C@H](C)NC(=O)[C@@H]2C[C@@H](O)CN2C(=O)[C@H](c2cc(OCCN3CCN(CCOc4cc(N5C6CCC5CN(c5cc(-c7ccccc7O)nnc5N)C6)ccn4)CC3)no2)C(C)C)cn1 [compound 161]	DC50	> 30 nM
Cc1ncsc1-c1ccc([C@H](C)NC(=O)[C@@H]2C[C@@H](O)CN2C(=O)[C@@H](c2cc(N3CCC(CN4CCC(O[C@H]5C[C@H](Oc6cc(N7CCOC8(CCN(c9cc(-c%10ccccc%10O)nnc9N)CC8)C7)ccn6)C5)CC4)CC3)no2)C(C)C)cc1 [compound 716]	DC50	< 2.5 nM
Cc1ncsc1-c1ccc([C@H](C)NC(=O)[C@@H]2C[C@@H](O)CN2C(=O)[C@H](c2cc(OC/C=C/c3ccc(O[C@H]4C[C@H](Oc5cc(N6C7CCC6CN(c6cc(-c8ccccc8O)nnc6N)C7)ccn5)C4)cn3)no2)C(C)C)cc1 [compound 186]	DC50	10 to 30 nM
Cc1ncsc1-c1ccc([C@H](C)NC(=O)[C@@H]2C[C@@H](O)CN2C(=O)[C@@H](c2cc(OCCN3CCN(CCOc4cc(N5C6CCC5CN(c5cc(-c7ccccc7O)nnc5N)C6)ccn4)[C@H](C)C3)no2)C(C)C)cc1 [compound 139]	DC50	< 2.5 nM
Cc1ncsc1-c1ccc(C2(NC(=O)[C@@H]3C[C@@H](O)CN3C(=O)[C@H](c3cc(OCCN4CCN(CCOc5cc(N6C7CCC6CN(c6cc(-c8ccccc8O)nnc6N)C7)ccn5)CC4)no3)C(C)C)CN(C)C2)cc1 [compound 228]	DC50	> 30 nM
Cc1ncsc1-c1ccc([C@H](C)NC(=O)[C@@H]2C[C@@H](O)CN2C(=O)[C@@H](c2cc(OCCN3CCN(CCOc4cc(N5C6CCC5CN(c5cc(-c7ccccc7O)nnc5N)C6)ccn4)[C@@H](C)C3)no2)C(C)C)cc1 [compound 140]	DC50	< 2.5 nM

Reference for the values: patent US12539292B2
